Source: ChEMBL document CHEMBL4513216

Listing of recorded cytotoxicity at 10 µM by entry.
- protocol notes: Toxicity liver stage against HepG2, at 10uM
- Assay type: cell-based
- Parameters: test concentration 10 uM, cell line HepG2-A16-CD81EGFP
- condition summary: human, HepG2-A16-CD81EGFP cells; read-out: INHIBITION
experimental endpoint: cytotoxicity at 10 µM (%)

{"columns": ["compound", "experimental endpoint", "scale unit", "measured value"],
 "data": [
  ["CCOc1ccc(C2SCC(=O)Nc3c2c(=O)[nH]n3C(CC)CC)cc1 (centres undefined)", "cytotoxicity at 10 µM", "%", 6.5],
  ["COC(C)c1cccc(NCc2cccs2)c1 (centres undefined)", "cytotoxicity at 10 µM", "%", -8.94],
  ["O=C(O)Cc1cccc(-n2ccnc2-c2ccc(F)c(Cl)c2)c1", "cytotoxicity at 10 µM", "%", 2.17],
  ["COCC(C)NC(=O)CN1CCC(C)CC1 (centres undefined)", "cytotoxicity at 10 µM", "%", -9.32],
  ["Cc1ncsc1CCN1CCC(N(C)Cc2ncc(C(C)C)o2)C1 (centres undefined)", "cytotoxicity at 10 µM", "%", -7.49],
  ["O=C(c1nc(Cc2c[nH]c3ccccc23)no1)N1CCCC1", "cytotoxicity at 10 µM", "%", 7.76],
  ["CC(CCn1cccn1)N1CCC(n2cc(C(C)(C)N)nn2)CC1 (centres undefined)", "cytotoxicity at 10 µM", "%", -4.78],
  ["Cc1ccc(CCNC(=O)CC2COCCN2S(=O)(=O)N(C)C)s1 (centres undefined)", "cytotoxicity at 10 µM", "%", 1.69],
  ["CN(C)C(=O)CO[C@H]1CN(Cc2nccs2)[C@@H]2COC[C@H]12", "cytotoxicity at 10 µM", "%", 5.08],
  ["CCc1ccccc1N1CC(c2nnc(N)s2)CC1=O (centres undefined)", "cytotoxicity at 10 µM", "%", 0.502],
  ["Cc1ccnc(C2CCN(C(=O)c3cnn(C)c3)CC2)n1", "cytotoxicity at 10 µM", "%", -4.15],
  ["CN(C)c1ccc(C(=O)NCc2csc(Br)c2)cn1", "cytotoxicity at 10 µM", "%", -4.97],
  ["Nc1cc2c(nn1)CCN(C(=O)CCCC1CCCCC1)C2", "cytotoxicity at 10 µM", "%", -0.0113],
  ["CCCNC(=O)C(C)Nc1cccc(Oc2ccc(C#N)cn2)c1 (centres undefined)", "cytotoxicity at 10 µM", "%", -7.99],
  ["Cc1ccc(C(=O)N2CCC3(CC2)CC(c2ccccc2)C(=O)N3)o1 (centres undefined)", "cytotoxicity at 10 µM", "%", 11.1],
  ["O=C(CN1CCC(Nc2ncccn2)CC1)Nc1ccccc1", "cytotoxicity at 10 µM", "%", -17.5],
  ["CC(C)c1ncc(C(=O)N2CCOCC2CC(=O)c2ccco2)s1 (centres undefined)", "cytotoxicity at 10 µM", "%", 5.08],
  ["c1ccc(Cc2cccc(C3CCCN3C3CCOCC3)n2)cc1 (centres undefined)", "cytotoxicity at 10 µM", "%", 1.62],
  ["CCCc1nc(N[C@H]2COC[C@@H]2N2CCCCC2)c2cnn(C)c2n1", "cytotoxicity at 10 µM", "%", 0.727],
  ["CN(Cc1cn2c(n1)CN(C(=O)C1CCOCC1)CC2)Cc1ccco1", "cytotoxicity at 10 µM", "%", -1.46],
  ["COCCN(Cc1ccncc1)C(=O)CCSCc1ccc(F)cc1", "cytotoxicity at 10 µM", "%", 0.807],
  ["Cc1ccc(F)c(NS(=O)(=O)c2cc(C(=O)O)oc2C)c1", "cytotoxicity at 10 µM", "%", -3.52],
  ["CC(O)c1cn(Cc2cccc(C(F)(F)F)c2)nn1 (centres undefined)", "cytotoxicity at 10 µM", "%", 14.1],
  ["O=C(c1cccnc1)C1CCCN(c2nnc(C3CC3)o2)C1 (centres undefined)", "cytotoxicity at 10 µM", "%", 6.59]
]}
